# experimental_target: T1, human NPR1 extracellular domain expressed with a C-terminal mouse IgG2a (hNPR1-mFc) (human)
# T1 construct: also called hNPR1-Fc; human NPR1 dimer
# T1 chain: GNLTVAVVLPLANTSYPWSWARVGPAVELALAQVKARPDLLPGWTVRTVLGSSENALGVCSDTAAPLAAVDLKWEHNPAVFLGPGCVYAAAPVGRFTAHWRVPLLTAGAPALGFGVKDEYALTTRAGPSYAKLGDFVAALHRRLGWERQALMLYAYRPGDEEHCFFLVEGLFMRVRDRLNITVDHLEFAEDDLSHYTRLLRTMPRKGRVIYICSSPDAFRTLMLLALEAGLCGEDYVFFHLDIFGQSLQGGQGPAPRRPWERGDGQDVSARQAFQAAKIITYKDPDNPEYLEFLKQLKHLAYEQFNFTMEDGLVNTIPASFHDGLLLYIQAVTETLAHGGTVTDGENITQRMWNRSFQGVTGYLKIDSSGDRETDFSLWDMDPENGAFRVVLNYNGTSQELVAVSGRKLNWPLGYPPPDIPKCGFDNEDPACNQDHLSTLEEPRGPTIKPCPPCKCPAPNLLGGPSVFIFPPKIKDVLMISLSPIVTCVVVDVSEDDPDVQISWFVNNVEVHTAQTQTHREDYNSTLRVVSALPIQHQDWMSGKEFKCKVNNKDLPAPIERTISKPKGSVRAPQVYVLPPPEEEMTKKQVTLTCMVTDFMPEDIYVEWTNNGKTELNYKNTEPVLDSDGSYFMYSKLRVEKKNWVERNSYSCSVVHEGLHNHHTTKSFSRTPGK
# test_details: SPR, mAb captured, 37 C
readout: t½ (h)
Entry rule: numbers only, all in h.

Worked cases, t½ given:
mAb25491 (antibody, V domains shown) VH: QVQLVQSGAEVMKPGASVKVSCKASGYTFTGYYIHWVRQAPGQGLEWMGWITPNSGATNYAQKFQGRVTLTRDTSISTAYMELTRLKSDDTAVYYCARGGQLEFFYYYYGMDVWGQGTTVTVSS VL: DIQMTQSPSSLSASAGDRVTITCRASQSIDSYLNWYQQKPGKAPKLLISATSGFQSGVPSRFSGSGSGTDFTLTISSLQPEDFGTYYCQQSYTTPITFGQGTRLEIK
0.53
mAb25508 (antibody, V domains shown) VH: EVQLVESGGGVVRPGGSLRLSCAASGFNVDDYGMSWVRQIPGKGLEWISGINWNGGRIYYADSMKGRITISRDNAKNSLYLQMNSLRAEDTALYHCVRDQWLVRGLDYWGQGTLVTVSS VL: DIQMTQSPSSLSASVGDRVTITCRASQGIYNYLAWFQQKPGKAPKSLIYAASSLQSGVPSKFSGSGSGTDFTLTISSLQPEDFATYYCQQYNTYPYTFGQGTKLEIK
1.9

In the following, a different binder is considered.
Q: Give the measured t½ of mAb22033 (antibody, V domains shown) VH: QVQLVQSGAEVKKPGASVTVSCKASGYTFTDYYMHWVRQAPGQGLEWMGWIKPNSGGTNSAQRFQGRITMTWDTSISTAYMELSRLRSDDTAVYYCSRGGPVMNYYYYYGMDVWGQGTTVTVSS VL: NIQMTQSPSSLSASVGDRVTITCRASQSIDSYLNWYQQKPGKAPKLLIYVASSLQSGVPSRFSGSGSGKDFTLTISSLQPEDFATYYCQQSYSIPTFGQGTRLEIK .
A: 1.47

Cited source: patent US20240309103A1
